Source listed as patent US20080275248A1.

# Activity status in terms of IC50 values, Prostate DU145 values compiled below
test system: DU145; test: SRB cytotoxicity assay, prostate DU145; type: cell-based, human; conditions: DU145 prostate cancer cells, SRB assay, 48 hours drug incubation

Solved entries (count: 3):
Query: Given COc1cc(C2c3cc4c(cc3C(Nc3ccc(-c5nc6ccccc6s5)c(Cl)c3)C3COC(=O)C23)OCO4)cc(OC)c1OC (stereo not drawn) [Compound 4c] , state its recorded Activity status in terms of IC50 values, Prostate DU145.
Response: >80 µg/mL

Query: Item under review: COc1cc(C2c3cc4c(cc3C(Nc3ccc(-c5nc6ccccc6s5)c(Cl)c3)C3COC(=O)C23)OCO4)cc(OC)c1O (stereo not drawn) [Compound 4d] . Reported Activity status in terms of IC50 values, Prostate DU145?
Response: >80 µg/mL

Query: Name the recorded Activity status in terms of IC50 values, Prostate DU145 for COc1cc(C2c3cc4c(cc3C(Nc3ccc(-c5nc6ccc(F)cc6s5)cc3)C3COC(=O)C23)OCO4)cc(OC)c1O (stereo not drawn) [Compound 4h] .
Response: >80 µg/mL

New cases:
Query: Query (compound): COc1cc(C2c3cc4c(cc3C(Nc3ccc(-c5nc6ccccc6s5)cc3)C3COC(=O)C23)OCO4)cc(OC)c1O (stereo not drawn) [Compound 4b] ; field requested: Activity status in terms of IC50 values, Prostate DU145
Response: 13 µg/mL

Query: # Activity status in terms of IC50 values, Prostate DU145 lookup, item COc1cc(C2c3cc4c(cc3C(Nc3ccc(-c5nc6ccccc6s5)cc3)C3COC(=O)C23)OCO4)cc(OC)c1OC (stereo not drawn) [Compound 4a]
Response: >80 µg/mL

Query: Param item = COc1cc(C2c3cc4c(cc3C(Nc3ccc(-c5nc6ccc(F)cc6s5)cc3)C3COC(=O)C23)OCO4)cc(OC)c1OC (stereo not drawn) [Compound 4g] ; retrieve measured Activity status in terms of IC50 values, Prostate DU145.
Response: >80 µg/mL
